Please go through the items and note down their pIC50.
# tested.system: alanyl aminopeptidases (APN) (Homo sapiens)
# procedure.text: Inhibition of alanyl aminopeptidase enzymatic activity, fluorogenic substrate (Ala)2-rhodamine 110
# Format: biochemical
# recorded.conditions: Table 3, unstarred values; read-out: IC50APN
# Method: The inhibition characteristics measured are referred to as IC-50 values or ID50 values (the latter marked with “*”) for said enzyme. The enzymatic activity was determined by means of the fluorogenic substrate/product (Ala)2-rhodamine 110.
Answers are plain numbers, as −log10 of the molar value.

Would you mind giving pIC50 for every compound in the list below?
1. Cc1cccc(C)c1NC(=S)NC(=O)c1cccs1
2. O=C(N/N=C/C=C\c1ccco1)c1ccco1
3. O=c1[nH]c(/C=C/c2ccco2)cc2ccccc12
4. Cc1[nH]c2ccccc2c1C(c1cc(Cl)ccc1O)N1CCOCC1 (stereo not shown)

### Response
1: 4.89; 2: 4.80; 3: 4.84; 4: 4.93

----------
# tested.system: alanyl aminopeptidases (APN) (Homo sapiens, UniProt P15144)
# Sequence (P15144 whole entry, species assumed): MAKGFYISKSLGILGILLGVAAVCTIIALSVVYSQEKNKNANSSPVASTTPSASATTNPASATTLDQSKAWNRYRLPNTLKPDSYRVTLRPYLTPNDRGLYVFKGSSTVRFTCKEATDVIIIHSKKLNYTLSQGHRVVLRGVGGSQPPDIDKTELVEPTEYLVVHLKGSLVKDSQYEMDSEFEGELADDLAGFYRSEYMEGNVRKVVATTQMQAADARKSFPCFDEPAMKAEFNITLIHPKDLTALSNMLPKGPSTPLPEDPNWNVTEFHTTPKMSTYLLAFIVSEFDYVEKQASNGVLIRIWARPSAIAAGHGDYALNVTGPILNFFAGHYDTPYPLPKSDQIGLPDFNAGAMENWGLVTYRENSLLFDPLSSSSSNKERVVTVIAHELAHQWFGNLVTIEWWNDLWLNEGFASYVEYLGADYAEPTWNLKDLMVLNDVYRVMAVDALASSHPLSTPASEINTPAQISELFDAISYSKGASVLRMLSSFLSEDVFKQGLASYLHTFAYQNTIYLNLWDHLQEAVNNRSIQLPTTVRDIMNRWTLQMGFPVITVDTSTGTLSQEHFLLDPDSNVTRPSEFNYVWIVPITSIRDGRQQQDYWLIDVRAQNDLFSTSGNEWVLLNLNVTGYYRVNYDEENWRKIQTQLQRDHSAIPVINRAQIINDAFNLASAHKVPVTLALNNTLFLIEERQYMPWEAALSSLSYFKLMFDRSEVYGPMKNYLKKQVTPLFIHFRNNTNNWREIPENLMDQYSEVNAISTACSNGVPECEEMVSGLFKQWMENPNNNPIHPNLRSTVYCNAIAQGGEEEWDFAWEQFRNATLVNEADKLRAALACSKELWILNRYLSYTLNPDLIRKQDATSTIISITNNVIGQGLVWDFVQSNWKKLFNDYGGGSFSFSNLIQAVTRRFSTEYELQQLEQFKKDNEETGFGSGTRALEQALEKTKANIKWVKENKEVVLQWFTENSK
# procedure.text: Inhibition of alanyl aminopeptidase enzymatic activity, fluorogenic substrate (Ala)2-rhodamine 110
# Assay type: biochemical
# recorded.conditions: Table 1, unstarred values; read-out: IC50APN
# note: boundary value 8 µM maps to NOT MET; IC50 below it maps to MET

Answered examples (3):
Cc1cc(Cl)ccc1OCCC(=O)NO [A1.002] = MET
O=C(CCOC(c1ccc(F)cc1)c1ccc(F)cc1)NO [A1.012] = NOT MET
O=C(CCOC(c1ccccc1)c1ccc(Cl)cc1)NO (stereo not shown) [A1.005] = MET

### Prompt Identify whether the compound O=C(CCCCCN1C(=O)c2cccc3cccc(c23)C1=O)NO [A1.009] records IC50 below 8 µM.
### Response NOT MET

### Prompt A record lists O=C(ON1C(=O)CCC1=O)C1CCC(=O)N1C(=O)OCc1ccccc1 (stereo not shown) [A1.007] . Is its IC50 below 8 µM?
### Response NOT MET

### Prompt Consider the compound Cc1ccc(C(OCCC(=O)NO)c2ccccc2)cc1 (stereo not shown) [A1.010] . Is its IC50 strictly less than 8 µM?
### Response NOT MET

### Prompt Record CCOc1ccc(CC(=O)NO)cc1 [A1.006] : is its IC50 strictly below 8 µM?
### Response MET

----------
Provide the recorded IC50 for the entries that follow.
# tested.system: alanyl aminopeptidases (APN) (Homo sapiens)
# procedure.text: Inhibition of alanyl aminopeptidase enzymatic activity, fluorogenic substrate (Ala)2-rhodamine 110
# Type: biochemical
# recorded.conditions: Table 3, starred values = ID50; read-out: ID50 APN (values marked with *)
In your response, put the unit directly after the numeric value.

Example entries and their recorded answers appear below.
O=C(/C=C/c1ccco1)NCCCN1CCOCC1 = 208 µM
Cc1cccc(C(=O)Nc2ccc(C(=O)N/N=C/c3ccco3)cc2)c1 = 67.1 µM

### Prompt Supply measured IC50 of CN(C)c1ccc(C2NCCS2)cc1 (stereo not drawn) in your reply.
### Response 230 µM

----------
# tested.system: alanyl aminopeptidases (APN) (Homo sapiens)
# procedure.text: Inhibition of alanyl aminopeptidase enzymatic activity, fluorogenic substrate (Ala)2-rhodamine 110
# Assay type: biochemical
# recorded.conditions: Table 4, unstarred values; read-out: IC50APN
readout: pIC50
Numbers only, as −log10 of the molar value.

Cc1nc(C)c(C(=O)N/N=C/c2ccco2)s1 = 4.91
O=C(N/N=C/c1ccco1)c1cccc(NC(=O)c2ccccc2)c1 = 4.53

Continue with the compound presented below.
### Prompt Please supply the value of reported pIC50 for the item Cc1ccc(/C=N/NC(=O)c2ccc(NC(=O)c3ccccc3C)cc2)o1
### Response 4.64
